assay.protocol: chemical genetic growth profiling, strain panel (AID 1159580);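 note: tested at 20 µM; growth read once vehicle control cultures reached saturation at 30 °C; 1 = growth at the plate median or of vehicle wells; lower values mean less growth of the strain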
run.parameters: S. cerevisiae deletion strains, growth OD, locus YLR357W, strain rsc2, stronger effect = lower value
The whole screen tested about 5,500 compounds, of which about 2,000 (36%) were called active. Inconclusive results (about 18%) are left out. This is one part of the list.
Documented normalized growth across a set of compounds
When you answer, write just the number.

Solved cases (2 shown):
// normalized growth lookup, key: CC(=O)O[C@H]1CCC2(C)C3=C(CCC2C1(C)C)[C@]1(C)CCC(C(C)CCC=C(C)C)[C@@]1(C)CC3 (stereo partly drawn)
0.996

// normalized growth lookup, key: `CC1=CC(=O)c2c(O)cccc2C1=O`
0.113

With those in mind, consider the next compound.
// normalized growth lookup, key: `CC(=O)Oc1ccc(O)cc1`
0.988

Measured values drawn from PubChem BioAssay AID1159580 for this set.
